Entries and their N2 % Inhibition @40 µg/ml, BT474 cell proliferation
target: human ErbB2, full length, on cells (human, UniProt P04626 23-1255); test: cell-based or functional assay
Give the number; % is assumed, so skip it.

monoclonal antibody 1.100.1 (antibody, V domains shown, Fully human IgG (gamma/kappa) from a XenoMouse XM3B-3 hybridoma; constant regions not tied to it; also called 1.100.2; 1.100.3) VH: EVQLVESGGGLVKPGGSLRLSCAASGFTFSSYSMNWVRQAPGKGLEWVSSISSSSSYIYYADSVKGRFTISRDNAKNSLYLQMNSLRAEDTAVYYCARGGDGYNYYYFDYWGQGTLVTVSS VL: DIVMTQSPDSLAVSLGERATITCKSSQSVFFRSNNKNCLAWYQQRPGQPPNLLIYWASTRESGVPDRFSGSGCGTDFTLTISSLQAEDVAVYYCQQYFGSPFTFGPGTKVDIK :: 32
monoclonal antibody 1.20 (antibody, V domains shown, Fully human IgG (gamma/kappa) from a XenoMouse XM3B-3 hybridoma; constant regions not tied to it; also called 1.20.1; 1.19) VH: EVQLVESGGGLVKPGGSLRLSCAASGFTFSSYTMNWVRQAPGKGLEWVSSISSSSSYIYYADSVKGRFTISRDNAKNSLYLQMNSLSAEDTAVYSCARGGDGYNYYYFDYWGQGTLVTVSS VL: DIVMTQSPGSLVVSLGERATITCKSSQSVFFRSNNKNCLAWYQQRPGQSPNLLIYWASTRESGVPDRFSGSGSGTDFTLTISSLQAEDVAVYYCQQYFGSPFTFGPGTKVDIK :: 37

Lab note: next binder to report on.
Task: Given the binder monoclonal antibody 1.14.1 (antibody, V domains shown, Fully human IgG (gamma/kappa) from a XenoMouse XM3B-3 hybridoma; constant regions not tied to it) VH: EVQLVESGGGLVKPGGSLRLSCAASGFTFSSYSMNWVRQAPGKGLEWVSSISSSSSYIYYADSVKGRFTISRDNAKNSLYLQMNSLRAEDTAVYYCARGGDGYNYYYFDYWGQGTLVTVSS VL: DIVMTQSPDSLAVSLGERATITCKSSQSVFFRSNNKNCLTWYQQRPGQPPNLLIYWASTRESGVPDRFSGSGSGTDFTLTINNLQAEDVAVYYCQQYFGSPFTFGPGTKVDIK , what is its reported N2 % Inhibition @40 µg/ml, BT474 cell proliferation?
Output: 39
